system: Liver; experiment: Half life in mouse liver microsome at 5 mg/kg, iv after 24 hrs by LC/MS/MS analysis; type: ADME; conditions: microsomes
Assay endpoint: t1/2 (min)
Report only the number, with the unit min understood.

[[record]]
smiles_code = "O=[N+]([O-])c1cn2c(n1)OC[C@@H](NCc1ccc(OC(F)(F)F)cc1OC1CC1)C2"
system = "Liver"
numeric_readout = 9.2

[[record]]
smiles_code = "O=[N+]([O-])c1cn2c(n1)OC[C@@H](NCc1ccc(OC(F)(F)F)cc1Oc1ccccc1)C2"
system = "Liver"
numeric_readout = 6.4

[[record]]
smiles_code = "CN(Cc1ccc(OC(F)(F)F)cc1)[C@@H]1COc2nc([N+](=O)[O-])cn2C1"
system = "Liver"
numeric_readout = 11


Ask | Determine its reported t1/2: O=[N+]([O-])c1cn2c(n1)OC[C@@H](NCc1ccc(OC(F)(F)F)c(O)c1)C2
Reply | 22.4

Ask | Give the value of t1/2 reported for the following: O=[N+]([O-])c1cn2c(n1)OC[C@@H](NCc1ccc(OC(F)(F)F)cc1Cl)C2
Reply | 19.9

Ask | Recall and state the measured t1/2 for O=[N+]([O-])c1cn2c(n1)OC[C@@H](NCc1ccc(OC(F)(F)F)c(Cl)c1)C2 .
Reply | 13.4
